# test-system: T1, recombinant human Drp1 (dynamin related protein 1) (human, UniProt O00429 1-736)
# T1 construct: dynamin related protein 1 (Drp1), human, recombinant; details may stand in the Supplementary Methods; also called recombinant Drp1
# T1 sequence (O00429 whole entry): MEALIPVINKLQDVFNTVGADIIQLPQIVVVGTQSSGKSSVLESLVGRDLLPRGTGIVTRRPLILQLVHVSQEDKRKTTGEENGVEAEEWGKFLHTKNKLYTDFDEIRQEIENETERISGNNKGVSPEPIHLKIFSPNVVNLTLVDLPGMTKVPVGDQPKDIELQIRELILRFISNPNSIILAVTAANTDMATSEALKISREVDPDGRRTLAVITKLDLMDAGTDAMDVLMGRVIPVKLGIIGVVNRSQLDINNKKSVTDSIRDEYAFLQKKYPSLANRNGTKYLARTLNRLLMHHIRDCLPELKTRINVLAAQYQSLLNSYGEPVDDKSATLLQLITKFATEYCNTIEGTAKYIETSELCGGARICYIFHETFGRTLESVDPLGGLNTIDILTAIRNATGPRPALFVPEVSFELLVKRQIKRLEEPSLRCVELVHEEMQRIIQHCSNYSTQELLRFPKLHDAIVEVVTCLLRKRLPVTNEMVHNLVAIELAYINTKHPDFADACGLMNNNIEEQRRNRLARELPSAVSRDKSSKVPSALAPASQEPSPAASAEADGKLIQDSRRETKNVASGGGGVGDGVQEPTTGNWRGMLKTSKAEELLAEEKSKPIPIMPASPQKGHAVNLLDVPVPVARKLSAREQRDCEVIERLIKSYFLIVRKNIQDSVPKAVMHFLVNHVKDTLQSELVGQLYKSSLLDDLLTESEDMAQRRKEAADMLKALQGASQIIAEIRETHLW
# assay-overview: graphene surface with transistors measuring electrical conductance
# test-parameters: both partners purified
quantity: pKd
Here pKd is given on a logarithmic scale as minus log10 of the concentration in mol/L.

The reported value for IIQLPEIVVV (peptide, UniProt O00429 22-31, looked up, dynamin related protein 1 (Drp1), residues 22-31, with glutamine 27 replaced by glutamate as found in Mff; The text introduces the TAT carrier only for the cell experiments; whether the in vitro peptide carried it may be told in the Supplementary Methods; also called peptide P259) [P259] in terms of pKd is 7.92
